- runDescription: Toxicity in human A3.01 cells assessed as reduction in cell viability after 48 hrs by WST8 assay
- Assay type: cell-based
CC50 at 48 h values, listed per item
readoutName: CC50 at 48 h

{"molecule": "CCCCCCCCCCc1ccc2c(c1)N(C)[C@H](C(C)C)C(=O)N[C@H](CO)CC2", "reportedMeasurement": "> 100 µM"}
{"molecule": "CC(=O)O[C@@]12C[C@@H](C)[C@@]3(O)[C@@H](C=C(CO)C[C@]4(O)C(=O)C(C)=C[C@@H]34)[C@@H]1C2(C)C [PROSTRATIN]", "reportedMeasurement": "> 100 µM"}
{"molecule": "CC(C)[C@H]1C(=O)N[C@H](CO)Cc2c[nH]c3cccc(c23)N1C [INDOLACTUM]", "reportedMeasurement": "> 100 µM"}

---

The reader will find reported CC50 at 48 h values listed item by item below.
- runDescription: Toxicity in human U-937 cells assessed as reduction in cell viability after 48 hrs by WST8 assay
- Assay type: cell-based

{"smilesStr": "CC(=O)O[C@@]12C[C@@H](C)[C@@]3(O)[C@@H](C=C(CO)C[C@]4(O)C(=O)C(C)=C[C@@H]34)[C@@H]1C2(C)C", "CC50 at 48 h": "> 100 µM"}
{"smilesStr": "CCCCCCCCCCc1ccc2c(c1)N(C)[C@H](C(C)C)C(=O)N[C@H](CO)CC2", "CC50 at 48 h": "> 100 µM"}
{"smilesStr": "CC(C)[C@H]1C(=O)N[C@H](CO)Cc2c[nH]c3cccc(c23)N1C", "CC50 at 48 h": "> 100 µM"}

---

- runDescription: Toxicity in human PBMC assessed as reduction in cell viability after 5 days by WST8 assay
- Format: cell-based
- conditions: time 5 day
# reported CC50 at 120 h; entries follow

{"molecule": "CC(C)[C@H]1C(=O)N[C@H](CO)Cc2c[nH]c3cccc(c23)N1C [INDOLACTUM]", "CC50 at 120 h": "> 100 µM"}
{"molecule": "CC(=O)O[C@@]12C[C@@H](C)[C@@]3(O)[C@@H](C=C(CO)C[C@]4(O)C(=O)C(C)=C[C@@H]34)[C@@H]1C2(C)C [PROSTRATIN]", "CC50 at 120 h": "> 100 µM"}
{"molecule": "CCCCCCCCCCc1ccc2c(c1)N(C)[C@H](C(C)C)C(=O)N[C@H](CO)CC2", "CC50 at 120 h": "> 100 µM"}
